Provide the recorded Ki for the entries that follow.
# systemTested: Replicase polyprotein 1a/Z-RLRGG-AMC (Severe acute respiratory syndrome coronavirus, UniProt P0C6U8)
I'd appreciate it if you included the unit after the number.

QUERY: Given CC(C)=CCc1c(O)ccc(C(=O)/C=C/c2ccc(O)cc2)c1O , respond with its Ki.
RESULT: 9.1 µM

QUERY: Given CC(C)=CCc1cc2c(cc1O)oc(=O)c1c3ccc(O)cc3oc21 , respond with its Ki.
RESULT: 4.2 µM

* * *

Provide the recorded pKi for the entries that follow.
Friendly reminder that pKi comes from taking -log10 of the concentration in mol/L.

QUERY: GET pKi | system: UniProtKB P0C6U8 | item: CC(C)=CCc1c(O)ccc(C(=O)/C=C/c2ccc(O)cc2)c1O
RESULT: 5.31

QUERY: GET pKi | system: UniProtKB P0C6U8 | item: COc1cc2c(cc1CC=C(C)C)C(=O)CC(c1ccc(O)cc1)O2 (stereo unspecified)
RESULT: 4.74

QUERY: GET pKi | system: UniProtKB P0C6U8 | item: CC(C)=CCc1cc(-c2coc3cc(O)ccc3c2=O)ccc1O
RESULT: 5.03

QUERY: GET pKi | system: UniProtKB P0C6U8 | item: COc1cc(O)c(C(=O)/C=C/c2ccc(O)cc2)cc1CC=C(C)C
RESULT: 5.34

QUERY: GET pKi | system: UniProtKB P0C6U8 | item: CC(C)=CCc1cc2c(cc1O)oc(=O)c1c3ccc(O)cc3oc21
RESULT: 5.77

QUERY: GET pKi | system: UniProtKB P0C6U8 | item: CC(C)=CCC/C(C)=C\Cc1cc(-c2coc3cc(O)ccc3c2=O)ccc1O
RESULT: 4.94
